Quick reference: kHSA of the listed items.
molecular target: human serum albumin HSA (Homo sapiens); construct: 4 × 10 mm; test: HPLC on immobilized human serum albumin column (HPLC-HSA); format: in vitro ADME; details: retention factor, acetate buffer pH 7.4/acetonitrile/methanol 85:10:5
Sequence (P02768 25-609): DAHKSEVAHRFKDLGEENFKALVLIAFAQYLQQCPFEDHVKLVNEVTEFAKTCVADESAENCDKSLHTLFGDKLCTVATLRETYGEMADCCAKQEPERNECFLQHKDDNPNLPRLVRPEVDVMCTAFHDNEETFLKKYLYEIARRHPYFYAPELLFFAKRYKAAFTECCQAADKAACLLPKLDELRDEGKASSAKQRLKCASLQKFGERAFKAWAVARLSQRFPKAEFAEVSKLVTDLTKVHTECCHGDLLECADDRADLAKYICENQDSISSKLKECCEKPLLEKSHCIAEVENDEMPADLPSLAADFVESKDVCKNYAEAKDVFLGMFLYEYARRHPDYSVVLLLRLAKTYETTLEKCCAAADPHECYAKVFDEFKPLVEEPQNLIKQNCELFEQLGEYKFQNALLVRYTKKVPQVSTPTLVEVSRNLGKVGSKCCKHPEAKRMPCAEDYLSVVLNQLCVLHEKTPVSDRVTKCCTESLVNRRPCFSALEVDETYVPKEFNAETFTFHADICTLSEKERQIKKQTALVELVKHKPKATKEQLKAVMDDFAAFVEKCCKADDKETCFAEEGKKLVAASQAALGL
// keep it numeric: no unit symbol after the value

Q: State its kHSA: CCS(=O)(=O)CCn1c([N+](=O)[O-])cnc1C [tinidazole]
Result: 0.12

Q: State its kHSA: CCC[C@@H]1C[C@@H](C(=O)N[C@@H]([C@H]2O[C@H](SC)[C@H](O)[C@@H](O)[C@H]2O)[C@@H](C)O)N(C)C1 [lincomycin]
Result: 0.82

Q: State its kHSA: CN(C)CCC=C1c2ccccc2COc2ccccc21 [doxepin]
Result: 4.25
